B1: Receptor-interacting serine/threonine-protein kinase 2, residues 438 to 518; numbered along this chain, O43353 (parent)
chain: QWIQSKREDIVNQMTEACLNQSLDALLSRDLIMKEDYELVSTKPTRTSKVRQLLDTTDIQGEEFAKVIVQKLKDNKQMGLQ

# Variants of: B1
# TEST PROTOCOL: abundance fitness (aPCA) (normalised: wild type 0, dead -1); higher = more abundant; growth selection in yeast, the domain comes from the species named
# MEASUREMENT CONDITIONS: Homo sapiens
abundance fitness below -0.3 gives F; abundance fitness at or above it gives T.

Query block: Check this variant for abundance fitness at or above -0.3: K34T
Result block: F

Query block: Check this variant for abundance fitness at or above -0.3: Q21R
Result block: T

Query block: Check this variant for abundance fitness at or above -0.3: K73T
Result block: T

Query block: Check this variant for abundance fitness at or above -0.3: L39W
Result block: F

Query block: Check this variant for abundance fitness at or above -0.3: T57H
Result block: T

Query block: Check this variant for abundance fitness at or above -0.3: L72Q
Result block: F

Query block: Check this variant for abundance fitness at or above -0.3: K49D
Result block: F

Query block: Check this variant for abundance fitness at or above -0.3: K76W
Result block: F
